System: M. abscessus (ATCC 19977)
procedure-details: MIC determination against NTM strains, microbroth dilution
Assay type: cell-based, Mycobacterium abscessus
applied-conditions: Mycobacteroides abscessus, ATCC19977, NTM strain; read-out: MIC (µM) M. abscessus 19977
# MIC per record follows

compound | unit | sign | MIC
CC[C@H]1OC(=O)[C@H](C)[C@@H](O[C@H]2C[C@@](C)(OC)[C@@H](O)[C@H](C)O2)[C@H](C)[C@@H](O[C@@H]2O[C@H](C)C[C@H](N(C)C)[C@H]2O)[C@](C)(OC)C[C@@H](C)C(=O)[C@H](C)[C@@H](O)[C@]1(C)O [Clarithromycin, reference compound] | µM | = | 4
C=C(CN=[N+]=[N-])[C@@H]1CC[C@]2(COC(C)=O)CC[C@]3(C)[C@H](CC[C@@H]4[C@@]5(C)CCCNC(C)(C)[C@@H]5CC[C@]43C)[C@@H]12 [Compound 15] | µM | > | 64
NCC[C@H](O)C(=O)N[C@@H]1C[C@H](N)[C@@H](O[C@H]2O[C@H](CN)[C@@H](O)[C@H](O)[C@H]2O)[C@H](O)[C@H]1O[C@H]1O[C@H](CO)[C@@H](O)[C@H](N)[C@H]1O [Amikacin, reference compound] | µM | = | 8
CC(=O)[C@@H]1CC[C@]2(COS(=O)(=O)c3ccc(C)cc3)CC[C@]3(C)[C@H](CC[C@@H]4[C@@]5(C)CCCNC(C)(C)[C@@H]5CC[C@]43C)[C@@H]12 [Compound 13] | µM | = | 16
C=C(C)[C@@H]1CC[C@]2(C)CC[C@]3(C)[C@H](CC[C@@H]4[C@@]5(C)CCCNC(C)(C)[C@@H]5CC[C@]43C)[C@@H]12 [Compound 2, azepano-lupeol] | µM | ≤ | 4
C=C(CBr)[C@@H]1CC[C@]2(COC(C)=O)CC[C@]3(C)[C@H](CC[C@@H]4[C@@]5(C)CCCNC(C)(C)[C@@H]5CC[C@]43C)[C@@H]12 [Compound 14] | µM | > | 64
C=C(C)[C@@H]1CC[C@]2(COC(C)=O)CC[C@]3(C)[C@H](CC[C@@H]4[C@@]5(C)CCCN(C(=O)c6cccnc6)C(C)(C)[C@@H]5CC[C@]43C)[C@@H]12 [Compound 12] | µM | = | 8
CC(C)=C1CCC=C2CC[C@]3(C)[C@H](CC[C@@H]4[C@@]5(C)CCCNC(C)(C)[C@@H]5CC[C@]43C)[C@H]21 [Compound 18] | µM | = | 32
CC1(C)CCC23CCC4(C)C(CCC5C6(C)CCCNC(C)(C)C6CCC54C)C2C1OC3 (stereo not drawn) [Compound 17] | µM | = | 16
C=C(C)[C@@H]1CC[C@]2(COC(C)=O)CC[C@]3(C)[C@H](CC[C@@H]4[C@@]5(C)CCCN(C(C)=O)C(C)(C)[C@@H]5CC[C@]43C)[C@@H]12 [Compound 11] | µM | = | 16
C#CCNC(=O)[C@]12CC[C@@H](C(=C)C)[C@@H]1[C@H]1CC[C@@H]3[C@@]4(C)CCCNC(C)(C)[C@@H]4CC[C@@]3(C)[C@]1(C)CC2 [Compound 20] | µM | = | 16
C=C(C)[C@@H]1CC[C@]2(C=NNC(=O)c3ccncc3)CC[C@]3(C)[C@H](CC[C@@H]4[C@@]5(C)CCCNC(C)(C)[C@@H]5CC[C@]43C)[C@@H]12 [Compound 7] | µM | = | 8
